target: Short transient receptor potential channel 6 (Homo sapiens); assay: Inhibition of human recombinant TRPC6 expressed in HEK293-MSRII cells assessed as carbachol-stimulated Ca2+/Na+ influx after 10 mins by FLIPR assay
Sequence (Q9Y210 whole entry): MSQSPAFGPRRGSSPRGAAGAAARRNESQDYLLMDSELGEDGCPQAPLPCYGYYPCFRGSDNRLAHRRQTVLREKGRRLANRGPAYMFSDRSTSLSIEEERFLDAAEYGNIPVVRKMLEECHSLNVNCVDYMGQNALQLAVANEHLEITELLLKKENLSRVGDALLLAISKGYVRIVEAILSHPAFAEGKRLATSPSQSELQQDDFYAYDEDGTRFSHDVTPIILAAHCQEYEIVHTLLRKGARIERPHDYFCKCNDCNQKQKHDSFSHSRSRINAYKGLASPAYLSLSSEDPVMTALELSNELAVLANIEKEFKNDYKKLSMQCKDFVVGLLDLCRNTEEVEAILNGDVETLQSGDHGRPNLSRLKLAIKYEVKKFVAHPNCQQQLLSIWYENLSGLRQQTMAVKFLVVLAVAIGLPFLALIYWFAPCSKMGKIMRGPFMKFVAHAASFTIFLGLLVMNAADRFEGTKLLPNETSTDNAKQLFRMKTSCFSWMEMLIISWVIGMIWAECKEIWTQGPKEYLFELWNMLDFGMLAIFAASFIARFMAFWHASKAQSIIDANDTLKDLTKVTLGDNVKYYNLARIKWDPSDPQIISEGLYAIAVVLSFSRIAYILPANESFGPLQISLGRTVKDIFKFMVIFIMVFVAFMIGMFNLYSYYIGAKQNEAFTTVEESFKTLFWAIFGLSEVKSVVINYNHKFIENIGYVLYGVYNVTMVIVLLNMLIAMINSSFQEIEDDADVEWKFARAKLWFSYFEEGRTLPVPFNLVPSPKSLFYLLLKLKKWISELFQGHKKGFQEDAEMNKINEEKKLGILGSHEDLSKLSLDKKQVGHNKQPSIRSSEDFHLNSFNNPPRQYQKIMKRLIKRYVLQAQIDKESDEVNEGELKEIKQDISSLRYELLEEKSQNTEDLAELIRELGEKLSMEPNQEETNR
Readout kind: IC50 (µM)
Give the number; µM is assumed, so skip it.

Reference set, count: 10
Compound: CC1CCN(C(=O)c2csc(Nc3ccc(Cl)cc3)n2)CC1
Assay target: Short transient receptor potential channel 6 (Homo sapiens)
Observed value: 0.8

Compound: Cc1sc(Nc2cc3c(cc2F)OCO3)nc1C(=O)N1CCCC(C)C1C (centres undefined)
Assay target: Short transient receptor potential channel 6 (Homo sapiens)
Observed value: 0.025

Compound: Cc1sc(Nc2ccc3c(c2)OCO3)nc1C(=O)N1CCc2ncccc2C1C (centres undefined)
Assay target: Short transient receptor potential channel 6 (Homo sapiens)
Observed value: 1.26

Compound: CC1CCCN(C(=O)c2nc(Nc3cc4c(cc3F)OCO4)sc2Cl)C1C (centres undefined)
Assay target: Short transient receptor potential channel 6 (Homo sapiens)
Observed value: 0.004

Compound: COc1ccc(Nc2nc(C(=O)N3CCC(c4ccccc4)CC3)cs2)cc1
Assay target: Short transient receptor potential channel 6 (Homo sapiens)
Observed value: 1.6

Compound: Cc1sc(Nc2ccc(Cl)cc2F)nc1C(=O)N1CCC[C@@H](C)[C@H]1C
Assay target: Short transient receptor potential channel 6 (Homo sapiens)
Observed value: 1.6

Compound: CC1CCN(C(=O)c2csc(Nc3ccc(Cl)cc3F)n2)CC1
Assay target: Short transient receptor potential channel 6 (Homo sapiens)
Observed value: 0.63

Compound: COc1ccc(Nc2nc(C(=O)N3CCC(C)CC3)cs2)cc1
Assay target: Short transient receptor potential channel 6 (Homo sapiens)
Observed value: 0.8

Compound: CC1CCCN(C(=O)c2csc(Nc3ccc4c(c3)OCO4)n2)C1C (centres undefined)
Assay target: Short transient receptor potential channel 6 (Homo sapiens)
Observed value: 0.016

Compound: CC1CCN(C(=O)c2csc(Nc3ccc4c(c3)OCO4)n2)CC1
Assay target: Short transient receptor potential channel 6 (Homo sapiens)
Observed value: 0.16

Value of IC50 reported for the compound CC1c2ccccc2CCN1C(=O)c1csc(Nc2ccc3c(c2)OCO3)n1 (centres undefined) is 0.063

Value of IC50 reported for the compound "O=C(c1csc(Nc2ccc3c(c2)OCO3)n1)N1CCc2ccccc2C1" is 0.16

###

assay: Mean residence time in rat at 1.06 mg/kg, iv; format: ADME, organism-based; design: dose 1.06 mg/kg, route intravenous; details: in vivo
Readout kind: MRT (h)
Give the number; h is assumed, so skip it.

Value of MRT reported for the compound Cc1sc(Nc2ccc3c(c2)OCO3)nc1C(=O)N1CCc2ncccc2C1C (stereo unspecified) is 1.3

###

biological target: Short transient receptor potential channel 3 (Homo sapiens); test: Inhibition of human recombinant TRPC3 expressed in HEK293-MSRII cells assessed as carbachol-stimulated Ca2+/Na+ influx after 10 mins by FLIPR assay
Sequence (Q13507 whole entry): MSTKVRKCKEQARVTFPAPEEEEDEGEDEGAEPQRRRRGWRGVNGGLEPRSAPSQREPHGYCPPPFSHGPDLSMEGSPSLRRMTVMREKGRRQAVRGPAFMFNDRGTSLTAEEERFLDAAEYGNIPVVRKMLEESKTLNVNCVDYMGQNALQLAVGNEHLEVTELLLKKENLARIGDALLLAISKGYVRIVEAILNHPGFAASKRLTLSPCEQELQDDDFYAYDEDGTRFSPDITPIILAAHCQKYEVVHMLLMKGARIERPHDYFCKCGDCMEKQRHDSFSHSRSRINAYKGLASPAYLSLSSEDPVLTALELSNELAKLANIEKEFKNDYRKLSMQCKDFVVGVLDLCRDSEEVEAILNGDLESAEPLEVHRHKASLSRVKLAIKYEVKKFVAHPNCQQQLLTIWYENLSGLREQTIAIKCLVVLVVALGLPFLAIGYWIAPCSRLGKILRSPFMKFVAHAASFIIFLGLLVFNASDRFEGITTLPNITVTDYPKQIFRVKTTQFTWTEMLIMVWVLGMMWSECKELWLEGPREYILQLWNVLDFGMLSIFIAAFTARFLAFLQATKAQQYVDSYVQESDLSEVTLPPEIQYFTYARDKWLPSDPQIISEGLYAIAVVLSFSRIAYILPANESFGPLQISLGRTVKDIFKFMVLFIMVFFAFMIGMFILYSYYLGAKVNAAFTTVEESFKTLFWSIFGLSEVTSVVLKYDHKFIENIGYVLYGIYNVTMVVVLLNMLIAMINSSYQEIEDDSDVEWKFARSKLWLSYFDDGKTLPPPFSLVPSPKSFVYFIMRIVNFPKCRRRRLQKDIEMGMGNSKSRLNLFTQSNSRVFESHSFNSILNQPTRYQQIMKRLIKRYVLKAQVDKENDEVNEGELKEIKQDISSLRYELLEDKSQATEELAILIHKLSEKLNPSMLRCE
Quick list: IC50 per entry.
Give the number; nM is assumed, so skip it.

Reference set, count: 6
Compound: Cc1ccc(Nc2nc(C(=O)N3CCCC(C)C3C)cs2)cc1 (configuration not stated)
Assay target: Short transient receptor potential channel 3 (Homo sapiens)
Readout kind: IC50
Observed value: 250
//
Compound: CC1CCN(C(=O)c2csc(Nc3ccc(Cl)cc3)n2)CC1
Assay target: Short transient receptor potential channel 3 (Homo sapiens)
Readout kind: IC50
Observed value: 800
//
Compound: CC1CCCN(C(=O)c2nc(Nc3cc4c(cc3F)OCO4)sc2Cl)C1C (configuration not stated)
Assay target: Short transient receptor potential channel 3 (Homo sapiens)
Readout kind: IC50
Observed value: 32
//
Compound: Cc1ccc(Nc2nc(C(=O)N3CCC(C4CCCCC4)CC3)cs2)cc1
Assay target: Short transient receptor potential channel 3 (Homo sapiens)
Readout kind: IC50
Observed value: 6300
//
Compound: CC1CCN(C(=O)c2csc(Nc3ccccc3Cl)n2)CC1
Assay target: Short transient receptor potential channel 3 (Homo sapiens)
Readout kind: IC50
Observed value: 6300
//
Compound: O=C(c1csc(Nc2ccc3c(c2)OCO3)n1)N1CCc2ccccc2C1
Assay target: Short transient receptor potential channel 3 (Homo sapiens)
Readout kind: IC50
Observed value: 500

Turning now to a further compound:
Value of IC50 reported for the compound "CC1CCN(C(=O)c2csc(Nc3ccc(Cl)cc3F)n2)CC1" is 1600
